Biological target: Adrenergic receptor alpha-2 (Rattus norvegicus) (UniProt P22086+P19328+P22909)
quantityMeasured: ID50 (mg/kg)

These solved cases illustrate the format of a correct answer.
1) CCCS(=O)(=O)N1CCC[C@@H]2CN3CCc4ccccc4[C@@H]3C[C@@H]21; 0.019
2) COCCS(=O)(=O)N1CCC[C@@H]2CN3CCc4ccccc4[C@@H]3C[C@@H]21; 0.062
3) CS(=O)(=O)N1CCC[C@@H]2CN3CCc4ccccc4[C@@H]3C[C@@H]21; 0.0125
4) c1ccc2c(c1)OCC(C1=NCCN1)O2 (configuration not stated); 0.017
5) CS(=O)(=O)N1CCC[C@@H]2CN3CCc4cc5c(cc4[C@@H]3C[C@@H]21)OCO5; 0.06
6) CC(C)CS(=O)(=O)N1CCC[C@@H]2CN3CCc4cc5c(cc4[C@@H]3C[C@@H]21)OCO5; 0.062

a = COc1ccc(S(=O)(=O)N2CCC[C@@H]3CN4CCc5ccccc5[C@@H]4C[C@@H]32)cc1
b = CCCCS(=O)(=O)N1CCC[C@@H]2CN3CCc4ccccc4[C@@H]3C[C@@H]21
c = COc1ccc2c(c1)CCN1C[C@H]3CCCN(S(C)(=O)=O)[C@@H]3C[C@@H]21
d = COc1cc2c(cc1OC)[C@@H]1C[C@H]3[C@H](CCCN3S(C)(=O)=O)CN1CC2
Endpoint returns the given molecules ordered by ascending ID50. Thanks in advance for listing the labels in the requested order.
c, b, a, d
